// reported pIC50 for each item listed
TARGET UNDER TEST: recombinant full-length human hydroxyacid oxidase 1 (HAO1), the equivalents of hGOX (Homo sapiens (Human), UniProt Q9UJM8)
Sequence (Q9UJM8 whole entry): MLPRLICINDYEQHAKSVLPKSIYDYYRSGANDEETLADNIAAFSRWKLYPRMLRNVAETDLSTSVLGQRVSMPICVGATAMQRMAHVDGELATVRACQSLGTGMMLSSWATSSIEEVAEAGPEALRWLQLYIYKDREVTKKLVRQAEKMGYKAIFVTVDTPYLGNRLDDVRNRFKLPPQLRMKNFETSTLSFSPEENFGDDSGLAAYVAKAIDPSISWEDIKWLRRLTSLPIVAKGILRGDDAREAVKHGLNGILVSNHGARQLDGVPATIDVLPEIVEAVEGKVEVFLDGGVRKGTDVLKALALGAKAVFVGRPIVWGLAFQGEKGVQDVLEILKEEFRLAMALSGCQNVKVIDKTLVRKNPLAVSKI
EXPERIMENT: In-vitro human glycolate oxidase (hGOX) assay (Amplex red fluorescence)
MEASUREMENT SETUP: 6 nM recombinant human GO, 85 μM glycolate, 10 min preincubation
Scale: negative log10 of molar concentration, which is what pIC50 denotes.

Consider the worked cases shown below.
SMILES ENTRY	READOUT LABEL	NUMERIC RESULT
Cn1ncc2cc(C#Cc3cccc(Oc4[nH]nnc4C(=O)O)c3)ccc21	pIC50	8.70
O=C(O)c1nn[nH]c1Cc1cccc(C#CCC2CC2)c1	pIC50	7.01
O=C(O)c1nn[nH]c1Oc1ccc(C#CCC2CC2)cc1	pIC50	7.82

In: State, in one line, measured pIC50 of O=C(O)c1nn[nH]c1Oc1cccc(C#Cc2nccs2)c1
Out: 8.70

In: State, in one line, measured pIC50 of O=C(O)c1nn[nH]c1Oc1cccc(C#Cc2cccc(Cl)c2)c1
Out: 9.00
